Experimental target: Cytochrome P450 3A4 (Homo sapiens)
Assay name: Cytochrome P450 Family 3 Subfamily A Member 4 (CYP3A4) small molecule antagonists: luciferase reporter qHTS assay (AID 1671201); further: nearly all actives have a fitted effect of over 50% in size
Settings: P450-Glo CYP3A4 enzyme, luciferin luminescence, 1 h; series mostly up to 115 µM
Inconclusive results are not listed. Active and inactive are the calls of the source. The call rests on the fitted dose curve; in most records, active means well fitted inhibition curve with a large enough effect in the repeat runs; inconclusive means weak or mixed curves; inactive means no such curve, though single readings can be large or run the other way.
Classes to choose from: true (1) (active), false (0) (inactive)

Consider the following illustrative entries.
1. C=CC1CC=CCC1 (stereo not given)    false (0)
2. OCCBr    false (0)
3. C(CCOCC1CO1)COCC1CO1 (stereo not given)    false (0)
4. COc1cc(C[C@@H](C)N)c(OC)cc1C    false (0)
5. OCCSCSCCO    false (0)
6. CCCSC(=O)Cl    false (0)

## Task GET /call?item= Cc1ncc(CNC(=O)N(CCCl)N=O)c(N)n1 returns the recorded outcome of this test.
## Result false (0)

## Task Next entry: CCC(Cl)[N+](=O)[O-] (stereo not given)
## Result false (0)

## Task Next entry: CCC1(c2ccccc2)C(=O)N=C(O)NC1=O (stereo not given)
## Result false (0)
